Molecular target: T1, Monomeric human CD48-mmH (human)
T1 chain: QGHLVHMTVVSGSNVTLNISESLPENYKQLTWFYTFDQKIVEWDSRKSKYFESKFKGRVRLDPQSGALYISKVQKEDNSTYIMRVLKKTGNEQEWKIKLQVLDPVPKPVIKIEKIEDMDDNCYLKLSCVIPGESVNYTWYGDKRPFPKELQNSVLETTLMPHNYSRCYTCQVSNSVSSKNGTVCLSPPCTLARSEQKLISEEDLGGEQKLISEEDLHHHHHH
Test: SPR (Biacore), antibody captured by anti-Fc, CD48 in solution, 37 C
Entries annotated with measured kon
Could you give me the number in M⁻¹ s⁻¹? Just the number is fine.

1) H4H1770P (antibody, human IgG4, V domains shown, Human IgG4 Fc (H4H)) VH: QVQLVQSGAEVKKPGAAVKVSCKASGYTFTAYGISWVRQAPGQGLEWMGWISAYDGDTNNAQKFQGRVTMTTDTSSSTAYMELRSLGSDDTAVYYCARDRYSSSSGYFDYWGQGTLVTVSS VL: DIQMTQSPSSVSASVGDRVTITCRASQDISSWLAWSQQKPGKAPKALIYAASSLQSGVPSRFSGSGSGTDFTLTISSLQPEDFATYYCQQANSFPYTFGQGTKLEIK ... 804000
2) H2M1811N (antibody, mouse IgG2, V domains shown, Human variable domains, mouse IgG2 Fc (H2M)) VH: QVQLVQSGAEAREPGASVRVSCKASGYTFTDYFIHWVRQAPGQGLEWMGWINPNSGATNFAQKFQGRVTMTRDTSLITAYMDLSRLKSDDAAVFYCARDVDGSGWYLDFWGQGTLVTVSS VL: EIVLTQSPATLSLSPGERATLSCRASQSVSIYLAWYQQKPGQAPRLLIYDASNRATGIPARFSGSGSGTDFTLTISRLEPEDFAVYYCQQRSDWPPSITFGQGTRLEIK ... 130000
3) H2M1712N (antibody, mouse IgG2, V domains shown, Human variable domains, mouse IgG2 Fc (H2M)) VH: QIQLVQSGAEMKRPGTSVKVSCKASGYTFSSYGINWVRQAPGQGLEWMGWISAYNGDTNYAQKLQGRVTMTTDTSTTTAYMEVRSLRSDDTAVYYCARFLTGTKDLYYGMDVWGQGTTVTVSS VL: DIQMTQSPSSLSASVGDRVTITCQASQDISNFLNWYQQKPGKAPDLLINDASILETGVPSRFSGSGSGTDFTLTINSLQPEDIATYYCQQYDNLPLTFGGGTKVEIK ... 846000
4) H4H1772P (antibody, human IgG4, V domains shown, Human IgG4 Fc (H4H)) VH: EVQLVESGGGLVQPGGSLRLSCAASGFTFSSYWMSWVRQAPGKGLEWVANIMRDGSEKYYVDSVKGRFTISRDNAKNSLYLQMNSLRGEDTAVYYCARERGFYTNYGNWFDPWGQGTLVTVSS VL: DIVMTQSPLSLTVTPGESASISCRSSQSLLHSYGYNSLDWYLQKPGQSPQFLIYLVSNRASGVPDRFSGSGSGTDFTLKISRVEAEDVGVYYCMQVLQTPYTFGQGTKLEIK ... 172000

Moving on to the next binder.
In plain terms, H4H1775P (antibody, human IgG4, V domains shown, Human IgG4 Fc (H4H)) VH: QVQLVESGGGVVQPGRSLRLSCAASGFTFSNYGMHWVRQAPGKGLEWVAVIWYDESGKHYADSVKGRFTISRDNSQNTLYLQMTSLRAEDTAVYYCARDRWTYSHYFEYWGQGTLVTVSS VL: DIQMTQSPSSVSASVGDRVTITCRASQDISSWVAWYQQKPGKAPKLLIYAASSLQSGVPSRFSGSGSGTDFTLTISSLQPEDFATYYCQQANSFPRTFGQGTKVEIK has a documented kon of 177000
